Tgt: human Thromboxane A2 Receptor (TXA2), TBXA2R (gene 6915)
Measurement Protocol: NVS_GPCR_hTXA2: NovaScreen (NVS) G Protein-Coupled Receptor Assay for human Thromboxane A2 Receptor (TXA2) (AID 2283282);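 note: actives reduce bound radioligand signal relative to DMSO baseline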
Inconclusive results are not listed. Calls of active or inactive are those of the source. Rule for the calls: active = hit-call score of the fitted dose curve at least 0.9, where 1 is the maximum; inconclusive = response in the unintended direction; inactive = score below 0.9.
Classes to choose from: label 1 = active, label 0 = inactive

Take a look at these entries with their results.
{"columns": ["Molecule", "Label"],
 "data": [
  ["CCOP(=S)(OCC)SCS(=O)(=O)C(C)(C)C", "label 0"],
  ["N#CCCC(Br)(C#N)CBr (stereo unspecified)", "label 1"],
  ["O=C(O)COc1cc(Cl)c(Cl)cc1Cl", "label 0"],
  ["c1ccc2sc(SNC3CCCCC3)nc2c1", "label 1"],
  ["[Cl][Sn]([c]1ccccc1)([c]1ccccc1)[c]1ccccc1", "label 1"]
]}

Here is another molecule to look at.
query: GET /call?item= Oc1cccc(-c2ccccc2)c1 returns the recorded outcome of this test.
result: label 0

* * *

Measurement Protocol: IUF_NPC2-5_viability_120hr: Viability Assessment at 120 hours in the Leibniz Research Institute for Environmental Medicine (IUF) Neural Progenitor Cell Migration and Differentiation Assay (NPC2-5) (AID 2284312)
Activity calls are given as the source filed them. Rule for the calls: active = hit-call score of the fitted dose curve at least 0.9, where 1 is the maximum; inactive = score below 0.9.
I would appreciate it if you answered using one of these outcomes: active, inactive

{"columns": ["Molecule", "Label"],
 "data": [
  ["O=S1OC[C@@H]2[C@H](CO1)[C@]1(Cl)C(Cl)=C(Cl)[C@@]2(Cl)C1(Cl)Cl (stereo partly specified)", "inactive"],
  ["OC(Cc1ccccc1Cl)(Cn1[nH]cnc1=S)C1(Cl)CC1 (stereo unspecified)", "active"],
  ["CNC(=O)CSP(=O)(OC)OC", "inactive"],
  ["CS(=O)(=O)c1ccc(C(=O)C2C(=O)CCCC2=O)c(Cl)c1COCC(F)(F)F", "inactive"]
]}

query: Entry CCOCn1c(-c2ccc(Cl)cc2)c(C#N)c(Br)c1C(F)(F)F : call = ?
result: inactive

query: Which outcome was entered for the molecule Cc1cc(C(F)(C(F)(F)F)C(F)(F)F)ccc1NC(=O)c1cccc(I)c1C(=O)NC(C)(C)CS(C)(=O)=O in this test?
result: inactive

* * *

Tgt: CCAAT/enhancer-binding protein beta (Homo sapiens) (UniProt P17676)
Sequence (P17676 whole entry, looked up): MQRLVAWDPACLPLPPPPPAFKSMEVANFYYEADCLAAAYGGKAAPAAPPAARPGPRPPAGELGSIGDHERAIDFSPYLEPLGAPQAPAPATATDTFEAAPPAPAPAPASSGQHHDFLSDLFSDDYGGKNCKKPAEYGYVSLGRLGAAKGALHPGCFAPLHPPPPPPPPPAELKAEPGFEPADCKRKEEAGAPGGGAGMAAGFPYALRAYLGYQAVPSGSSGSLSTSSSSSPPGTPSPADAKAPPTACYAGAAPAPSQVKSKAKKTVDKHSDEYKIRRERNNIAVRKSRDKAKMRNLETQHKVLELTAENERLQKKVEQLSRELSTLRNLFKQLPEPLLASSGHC
Measurement Protocol: ATG_C_EBP_CIS: Attagene CIS-FACTORIAL HepG2 Assay for human CCAAT/Enhancer Binding Protein (C/EBP) beta (AID 2282927)
Settings: HepG2 Attagene cis-factorial transcription factor reporter; actives raise or lower the signal
Activity calls are given as the source filed them. Rule for the calls: active = hit-call score of the fitted dose curve at least 0.9, where 1 is the maximum; inactive = score below 0.9.
Recorded Metric: outcome

The examples below pair each entry with its known result.
{"columns": ["Molecule", "Observed"],
 "data": [
  ["OCCN(CCO)CCO", "inactive"],
  ["C[As+](C)(C)CC(=O)[O-]", "inactive"],
  ["O=[N+]([O-])c1c2ccccc2cc2ccccc12", "inactive"],
  ["CN(CCCC(O)c1cccnc1)N=O (stereo not drawn)", "inactive"],
  ["CC1(C)COP(Oc2ccccc2)OC1", "inactive"],
  ["O=C(CCl)NCO", "inactive"],
  ["Cc1ccccc1OP(=O)(Oc1ccccc1C)Oc1ccccc1C", "inactive"]
]}

Switching to the query record.
query: Supply measured outcome of CCCCN(CCCC)C(=S)S in your reply.
result: inactive
